The following compounds are shown together with reported MIC values.
System: Staphylococcus aureus
EXPERIMENT_DESCRIPTION: Antimicrobial activity against methicillin-resistant Staphylococcus aureus KMP9
Type: functional
Numeric only. Scale: µg/mL

// below: answered compounds
# COMPOUND, MIC / µg/mL
rows = [
    ("C=C[C@]1(C)C[C@@H](OC(=O)CN2CCN(C(=O)CCn3cnc4c(N5CCC(N)C5)ncnc43)C(CC)C2)[C@]2(C)[C@H](C)CC[C@]3(CCC(=O)[C@@H]32)[C@@H](C)[C@@H]1O.Cl.Cl (stereo not given in full)", 0.25),
    ("C=C[C@]1(C)C[C@@H](OC(=O)CN2CCN(C(=O)CCn3cnc4c(N5CCC(CN)CC5)ncnc43)CC2)[C@]2(C)[C@H](C)CC[C@]3(CCC(=O)[C@@H]32)[C@@H](C)[C@@H]1O.Cl.Cl", 1),
    ("C=C[C@]1(C)C[C@@H](OC(=O)CN2CCN(C(=O)CCn3cnc4c(N5CCC(CN)C5)ncnc43)CC2)[C@]2(C)[C@H](C)CC[C@]3(CCC(=O)[C@@H]32)[C@@H](C)[C@@H]1O.Cl.Cl (stereo not given in full)", 2),
]

Query string: MIC lookup needed for C=C[C@]1(C)C[C@@H](OC(=O)CN2CC(C)N(C(=O)CCn3cnc4c(N5CCC(N)C5)ncnc43)CC2C)[C@]2(C)[C@H](C)CC[C@]3(CCC(=O)[C@@H]32)[C@@H](C)[C@@H]1O.Cl.Cl (stereo not given in full) , thanks.
Result string: 0.25

Query string: Next entry: C=C[C@]1(C)C[C@@H](OC(=O)CN2CCN(C(=O)CCn3cnc4c(N5CCC(CNC)C5)ncnc43)CC2)[C@]2(C)[C@H](C)CC[C@]3(CCC(=O)[C@@H]32)[C@@H](C)[C@@H]1O.Cl.Cl (stereo not given in full)
Result string: 2
